Origin of measurements: paper PMC9090415

biological target: P. falciparum apicoplast DNA polymerase (Pf-apPOL) (Plasmodium falciparum, UniProt Q8ILY1); experiment: Fluorescence-based high-throughput DNA polymerase assay (molecular beacon), primary screen and dose-response; assay type: biochemical; details: DRC-1; read at 10'; concentration 20
Sequence (Q8ILY1 entry or part of it): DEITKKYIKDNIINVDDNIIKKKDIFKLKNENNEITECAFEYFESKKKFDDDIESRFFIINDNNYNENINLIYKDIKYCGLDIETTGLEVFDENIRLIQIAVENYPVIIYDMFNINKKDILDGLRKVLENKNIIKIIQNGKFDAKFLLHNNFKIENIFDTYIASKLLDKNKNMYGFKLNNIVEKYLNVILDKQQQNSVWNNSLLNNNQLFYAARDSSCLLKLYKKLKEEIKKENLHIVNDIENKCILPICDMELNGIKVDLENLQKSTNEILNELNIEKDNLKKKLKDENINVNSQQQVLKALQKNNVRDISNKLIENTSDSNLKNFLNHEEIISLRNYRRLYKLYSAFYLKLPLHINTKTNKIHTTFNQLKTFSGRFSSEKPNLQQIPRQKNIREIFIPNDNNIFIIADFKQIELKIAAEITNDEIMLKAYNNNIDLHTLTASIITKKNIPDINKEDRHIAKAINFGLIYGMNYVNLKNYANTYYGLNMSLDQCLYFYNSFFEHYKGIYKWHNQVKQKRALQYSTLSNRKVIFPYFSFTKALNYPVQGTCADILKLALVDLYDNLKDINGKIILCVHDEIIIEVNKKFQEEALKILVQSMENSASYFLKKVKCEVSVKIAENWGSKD
A collection of compounds and their measured % inhibition Apo pol 10' 20

- compound: "Cc1ccc(N2CCC(NC(=O)Cc3cccs3)C2=O)cc1C (stereo not shown)"
  % inhibition Apo pol 10' 20 / %: 41.5954
- compound: "N#Cc1c(O)nc(N2CCCCC2)nc1-c1ccc2c(c1)OCO2"
  % inhibition Apo pol 10' 20 / %: 55.5357
- compound: "COc1ccc(C2CC(c3ccc(Cl)cc3Cl)Nc3nc(N)nn32)cc1OC (stereo not shown)"
  % inhibition Apo pol 10' 20 / %: 56
- compound: "O=C(c1ccccc1)N1CCc2c(nc3cc(-c4ccccc4)[nH]n3c2=O)C1"
  % inhibition Apo pol 10' 20 / %: 76.4447
